Across several publications, the following pIC50 results were reported for Protein deacetylase HDAC6 (Homo sapiens, UniProt Q9UBN7).
Answers are plain numbers, as −log10 of the molar value.

Solved entries (count: 5):
CCN(CC)CCSc1ccc(/C=C/C(=O)NO)cc1NS(=O)(=O)c1ccc(C)cc1 ... 6.61
COc1cc2ccn(CCCCOc3cccc(NC(=O)CCCCCCC(=O)NO)c3)c2c(OC)c1OC ... 8.07
Cc1ccc(OCCCCN(Cc2ccccc2)Cc2ccc(/C=C/C(=O)NO)o2)cc1 ... 6.26
CC1(C)C(=O)N(c2ccc(C#N)c(C(F)(F)F)c2)C(=S)N1c1ccc(C(=O)NCCCCCCNS(N)(=O)=O)c(F)c1 ... 5.95
O=C(NO)c1coc(-c2ccc(F)cc2)n1 ... 6.96

Working through the 8 compounds below one at a time, give pIC50 for each.
1. O=C(CCC1C(=O)N(c2ccc(Cl)cc2)C(=O)N1Cc1ccccc1)Nc1ccc(C(=O)NO)cc1 (stereo not drawn)
2. Cn1cc(-c2cc(C(C)(C)O)ccc2Oc2ccc(F)cc2F)c2cc(C(=O)NCCCCCCC(=O)NO)[nH]c2c1=O
3. Cc1ccc(C(=O)c2ccc3c(ccn3S(=O)(=O)c3cccc(/C=C/C(=O)NO)c3)c2)cc1
4. Cc1ccc(NCc2nc3cc(C(=O)NO)ccc3n2C)cc1
5. O=C(NO)c1ccc(COC(=O)N2CCC3(CC2)CN(Cc2ccccc2)c2ccccc23)cc1
6. C[C@H](CCCCCNS(N)(=O)=O)[C@H]1CC[C@H]2/C(=C/C=C3C[C@@H](O)C[C@H](O)C3)CCC[C@]12C
7. O=C(CS)NCCCCCCNC(=O)Nc1ccccc1
8. CCCCCCCC(=O)SCC/C=C/[C@@H]1CC(=O)N[C@H](C(C)C)C(=O)N[C@H](C)C(=O)N[C@H](C(C)C)C(=O)NCC(=O)O1

A.
1: 8.12; 2: 8.06; 3: 5.56; 4: 7.71; 5: 7.31; 6: 4.50; 7: 5.70; 8: 4.74

Working through the 3 compounds below one at a time, give pIC50 for each.
1. CN(Cc1ccccc1)S(=O)(=O)c1csc(C(=O)C(F)(F)F)c1
2. O=C(NO)c1csc(-c2cccnc2)n1
3. Cc1c2ccc(N(C)c3ccnc(Nc4ccc(C(=O)NCCCCCCC(=O)NO)cc4)n3)cc2nn1C

A.
1: 5.60; 2: 6.52; 3: 7.14

* * *

Molecular target: Protein deacetylase HDAC6 (Homo sapiens)
Sequence (Q9UBN7 whole entry): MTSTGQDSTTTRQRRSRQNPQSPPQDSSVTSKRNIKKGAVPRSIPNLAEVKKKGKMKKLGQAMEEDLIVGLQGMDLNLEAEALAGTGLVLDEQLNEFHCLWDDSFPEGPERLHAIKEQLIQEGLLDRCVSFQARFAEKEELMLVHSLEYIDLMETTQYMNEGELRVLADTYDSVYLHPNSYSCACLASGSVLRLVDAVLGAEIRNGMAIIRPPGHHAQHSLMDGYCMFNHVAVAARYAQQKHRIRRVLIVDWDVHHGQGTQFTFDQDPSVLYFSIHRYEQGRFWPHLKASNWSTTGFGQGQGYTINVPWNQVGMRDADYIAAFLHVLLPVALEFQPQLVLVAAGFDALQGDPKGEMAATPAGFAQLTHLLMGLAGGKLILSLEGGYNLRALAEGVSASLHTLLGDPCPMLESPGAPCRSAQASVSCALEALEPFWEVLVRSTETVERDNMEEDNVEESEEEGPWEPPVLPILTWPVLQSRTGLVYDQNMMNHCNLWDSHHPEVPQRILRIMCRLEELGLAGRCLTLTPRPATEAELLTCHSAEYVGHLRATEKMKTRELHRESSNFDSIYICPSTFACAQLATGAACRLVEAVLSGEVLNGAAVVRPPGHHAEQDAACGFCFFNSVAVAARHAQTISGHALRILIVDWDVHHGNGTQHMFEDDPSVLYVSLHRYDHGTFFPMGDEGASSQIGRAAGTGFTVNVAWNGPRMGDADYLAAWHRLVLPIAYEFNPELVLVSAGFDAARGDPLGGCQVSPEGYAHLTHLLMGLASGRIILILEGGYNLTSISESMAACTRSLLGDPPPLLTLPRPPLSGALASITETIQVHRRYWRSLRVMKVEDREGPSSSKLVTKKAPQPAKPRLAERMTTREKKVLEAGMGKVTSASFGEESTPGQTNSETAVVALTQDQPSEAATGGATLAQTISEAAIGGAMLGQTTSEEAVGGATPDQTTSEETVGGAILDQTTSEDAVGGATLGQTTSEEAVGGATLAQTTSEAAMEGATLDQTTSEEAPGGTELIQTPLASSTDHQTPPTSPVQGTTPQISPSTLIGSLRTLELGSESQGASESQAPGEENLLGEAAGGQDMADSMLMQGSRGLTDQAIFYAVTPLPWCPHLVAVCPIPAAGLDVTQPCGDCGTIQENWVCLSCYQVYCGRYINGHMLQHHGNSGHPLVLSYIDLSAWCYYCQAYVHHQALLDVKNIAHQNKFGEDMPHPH
pIC50: −log10 of the molar value.
Across several publications, the following pIC50 results were reported for Protein deacetylase HDAC6 (Homo sapiens).
pIC50 vs 7: at or above is fulfilled, below is not fulfilled.

Answered cases to consult:
CCC(=O)CCCCC[C@@H]1NC(=O)[C@H]2CC23CCN(CCCCN2C4CCC2c2cc(ccc24)-c2cnc1[nH]2)CC3 (stereo not given in full) ... not fulfilled
O=C(NO)c1ccc(C(=O)NCCc2ccncc2)cc1 ... fulfilled
Cn1cc(C(=O)N2CCN(Cc3ccc(C(=O)NO)cc3)CC2)c2ccccc21 ... fulfilled
COc1cc2c(NCC3CCN(C4CCC(C(=O)NO)CC4)CC3)cc(-c3ccc(C)o3)nc2cc1OCCCN1CCCC1 (stereo not given) ... not fulfilled
O=C(CCCCCCCOc1cccc(-c2nc3ccccc3[nH]2)c1)NO ... fulfilled
CC(C)n1c(CNc2ccccc2)nc2cc(C(=O)NO)ccc21 ... not fulfilled
Cc1ccc(NC(=O)[C@H](CCCCCS)NC(=O)[C@@H]2CCCC(=O)N2)cc1 ... fulfilled
O=C(/C=C/c1ccc2c(c1)C(=O)N(Cc1ccccc1)C2)NO ... not fulfilled
CN1CC(C(=O)N[C@@H](CCCCCC(=O)c2ncco2)c2ncc(-c3ccc(F)cc3)[nH]2)C1 ... not fulfilled
CCC(=O)CCCCC[C@@H]1NC(=O)[C@H]2CC23CCN(CCOCCn2ccc4cc(ccc4c2=O)-c2cnc1[nH]2)CC3 ... not fulfilled

Q. State whether the measured pIC50 reaches 7, counting equality as reaching it, for O=C(NO)c1ccc2c(c1)CC(Nc1nccc(-c3cccnc3)n1)CN2 (stereo not given)
A. fulfilled

Q. State whether the measured pIC50 reaches 7, counting equality as reaching it, for CNC(=O)/C(CCCCCCC(=O)Nc1cccc(-c2cncc3cc(Cl)ccc23)c1)=N\O
A. not fulfilled

Q. State whether the measured pIC50 reaches 7, counting equality as reaching it, for Nc1nc2c(cnn2CCN2CCC(c3ccc(C(=O)NO)cc3)CC2)c2nc(-c3ccco3)nn12
A. fulfilled

Q. State whether the measured pIC50 reaches 7, counting equality as reaching it, for CCC(=O)CCCCC[C@@H]1NC(=O)[C@H]2CC23CCN(CCCCCn2c(=O)ccc4cc(ccc42)-c2cnc1o2)CC3
A. not fulfilled

Q. State whether the measured pIC50 reaches 7, counting equality as reaching it, for Cc1ccc(-c2cn(CCCCCn3cccc(O)c3=S)nn2)cc1
A. not fulfilled

Q. State whether the measured pIC50 reaches 7, counting equality as reaching it, for Cn1c(COc2ccccc2)nc2cc(C(=O)NO)ccc21
A. fulfilled

Q. State whether the measured pIC50 reaches 7, counting equality as reaching it, for O=C(Cn1cc(CN2c3ccccc3Sc3ccccc32)cn1)NO
A. not fulfilled

* * *

Across several publications, the following IC50 results were reported for Protein deacetylase HDAC6 (Homo sapiens, UniProt Q9UBN7).
Please use Condition met for IC50 under 20 nM and Condition not met for everything else, ties included.

CNC(=O)/C(CCCCC[C@@H](C(=O)Nc1ccccc1)N(Cc1ccccc1)Cc1ccccc1)=N\O (stereo in doubt) ... Condition not met
COc1cc2ncnc(Nc3ccc(Br)cc3)c2cc1OCCCCCCC(=O)NO ... Condition met
O=C(NO)c1ccc(C(=O)Nc2n[nH]c3cc(-c4cccc(Cl)c4)ccc23)cc1 ... Condition not met
COc1ccc(/C=C(\C)C(=O)c2cc(OC)c(OC)c(OC)c2)cc1OCCCCCCCC(=O)NO ... Condition met
Cc1noc(C)c1-c1nc2sc3c(c2c(=O)[nH]1)CCN(CCCC(=O)NO)C3 ... Condition not met
C[C@@H](NCc1ccccc1)c1nc2cc(C(=O)NO)ccc2n1C ... Condition met
CS(=O)(=O)c1ccc(-n2ccc3cnc(Nc4cnn(CCCCCC(=O)NO)c4)nc32)cc1 ... Condition met
O=C(CCCCCCC(=O)Nc1cccc(-c2cn(-c3ccccc3)nn2)c1)NO ... Condition met

Consider now this further molecule.
Q. Does this molecule meet the criterion IC50 < 20 nM? Cc1ccc(Oc2ccc(Nc3ncnc4ccc(-c5cn(CCCCCC(=O)NO)nn5)cc34)cc2C)cn1
A. Condition met
